Provenance of the data: PubChem BioAssay (EPA / NIEHS)

Read-out: Thyroid Hormone Responsive (THRSP), THRSP (gene 7069)
PROCEDURE_TEXT: LTEA_HepaRG_THRSP: Life Technologies and Expression Analysis (LTEA) Assay for Thyroid Hormone Responsive (THRSP) using HepaRG (AID 2283536)
TEST_CONDITIONS: mRNA level, 48 h; actives raise or lower the signal
Calls of active or inactive are those of the source. The calls were made as follows: active = hit-call score of the fitted dose curve at least 0.9, where 1 is the maximum; inactive = score below 0.9.

- COMPOUND: "CSC(=O)c1c(C(F)F)nc(C(F)(F)F)c(C(=O)SC)c1CC(C)C"
  AC50: "inactive"
- COMPOUND: "OC(c1ccc(Cl)cc1)(c1ccc(Cl)cc1)C(Cl)(Cl)Cl"
  AC50: "inactive"
- COMPOUND: "CO/N=C(/C1=NOCCO1)c1ccccc1Oc1ncnc(Oc2ccccc2Cl)c1F"
  AC50: "27.1 µM (active)"
- COMPOUND: "COP(=S)(OC)SCn1nnc2ccccc2c1=O"
  AC50: "inactive"
- COMPOUND: "CCCN(CC)CC1COC2(CCC(C(C)(C)C)CC2)O1 (configuration not stated)"
  AC50: "0.319 µM (active)"
- COMPOUND: "COc1ccc(-c2ccccc2)cc1NNC(=O)OC(C)C"
  AC50: "inactive"
- COMPOUND: "CCCCC(O)(Cn1cncn1)c1ccc(Cl)cc1Cl (configuration not stated)"
  AC50: "9.77 µM (active)"
- COMPOUND: "COC(=O)NC(=S)Nc1ccccc1NC(=S)NC(=O)OC"
  AC50: "inactive"
- COMPOUND: "Clc1nc(Cl)nc(Nc2ccccc2Cl)n1"
  AC50: "inactive"
- COMPOUND: "CC(C)N1C(=O)c2ccccc2NS1(=O)=O"
  AC50: "inactive"
- COMPOUND: "CCSC(=O)N1CCCCCC1"
  AC50: "inactive"
- COMPOUND: "Nc1cnn(-c2ccccc2)c(=O)c1Cl"
  AC50: "inactive"
